# target.of.assay: Osh4-Δ1-40 (template of Osh4-Δ1-40(K109A) and eOsh4) (Saccharomyces cerevisiae, UniProt P35844, K109A)
# Construct: gene KES1; N-terminal lid (aa 1-40) removed; pET-30a, N- and C-terminal His6 tags (printed for eOsh4), E. coli BL21 RIL codon plus
# assay.info: SPR (BIACORE X-100, L1 chip, immobilised LUVs, equilibrium Req)
# Format: binding
# assay.setup: apparent, protein concentration at half-maximal binding to POPC/POPS/cholesterol 75:20:5 LUVs (Fig. 3D legend 77:20:5); 20 mM Tris pH 7.4, 0.16 M NaCl, 23 °C

- compound.structure.string: "CC(C)CCC[C@@H](C)[C@H]1CC[C@H]2[C@@H]3CC=C4C[C@@H](O)CC[C@]4(C)[C@H]3CC[C@]12C"
  Kd: "100 nM"

---

# target.of.assay: Osh4-Δ1-40 (template of Osh4-Δ1-40(K109A) and eOsh4) (Saccharomyces cerevisiae, UniProt P35844, K109A)
# Construct: gene KES1; N-terminal lid (aa 1-40) removed; pET-30a, N- and C-terminal His6 tags (printed for eOsh4), E. coli BL21 RIL codon plus
# assay.info: SPR (BIACORE X-100, L1 chip, immobilised LUVs, equilibrium Req)
# Type: binding
# assay.setup: apparent, protein concentration at half-maximal binding to POPC/POPS/25HC 75:20:5 LUVs (Fig. 3D legend 77:20:5); 20 mM Tris pH 7.4, 0.16 M NaCl, 23 °C
pKd: −log10 of the molar value.
property.label: pKd

- molecule: "C[C@H](CCCC(C)(C)O)[C@H]1CC[C@H]2[C@@H]3CC=C4C[C@@H](O)CC[C@]4(C)[C@H]3CC[C@]12C [25-hydroxycholesterol]"
  property.label: "pKd"
  measurement: 6.10

Recorded values, source paper PMC8178126.
